Record form. Attribute: self-aminoacylation. Fill in for each entry.
Test system: biotinyl-Trp-oxazolone
Assay: self-aminoacylation, catalytic enhancement (BWO) (fold over background); higher = more active; k-Seq, kA / k0A0; sequences stand for … in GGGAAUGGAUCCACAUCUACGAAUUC…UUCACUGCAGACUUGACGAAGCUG
Variants at the floor of the assay were thinned out.
Give only the figure.

Challenge: Determine its reported self-aminoacylation: AAGUUUGCUUAUAGUCGCAAU [Fam3.1 aminoacylation ribozyme variant]
Response given: 1.03

Challenge: Determine its reported self-aminoacylation: ACUACCCUGGGCAUCGAGUGA [Fam2.1 aminoacylation ribozyme variant]
Response given: 6.86

Challenge: Determine its reported self-aminoacylation: AUUCACUUAGGUCUUCGGGUG [Fam2.2 aminoacylation ribozyme variant]
Response given: 4.2

Challenge: Determine its reported self-aminoacylation: CCUCACUUCAAGCAAUCGAUC [Fam1B.1 aminoacylation ribozyme variant]
Response given: 0.672

Challenge: Determine its reported self-aminoacylation: AUUCACAUAGGUCAUCAGGUG [Fam2.2 aminoacylation ribozyme variant]
Response given: 1.85

Challenge: Determine its reported self-aminoacylation: CCGCACUUCAAGAAAUCGGUC [Fam1B.1 aminoacylation ribozyme variant]
Response given: 10.3

Challenge: Determine its reported self-aminoacylation: ACUCACCUAGUUCAUCGGGUG [Fam2.2 aminoacylation ribozyme variant]
Response given: 3.85

Challenge: Determine its reported self-aminoacylation: CCACAUUUCAGGCAAUCGGUC [Fam1B.1 aminoacylation ribozyme variant]
Response given: 1.59

Challenge: Determine its reported self-aminoacylation: AUUCACCUAUGUCAACGGGUG [Fam2.2 aminoacylation ribozyme variant]
Response given: 2.52

Challenge: Determine its reported self-aminoacylation: CUACUUCCAACAAUUGGUCUG [Fam1A.1 aminoacylation ribozyme variant]
Response given: 0.536

* * *

System: biotinyl-Phe-oxazolone
Test: self-aminoacylation, catalytic enhancement (BFO) (fold over background); higher = more active; k-Seq, kA / k0A0; sequences stand for … in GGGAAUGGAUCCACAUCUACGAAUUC…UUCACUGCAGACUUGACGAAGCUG
Fewer inactive variants are shown than the library holds.
Ranges used to classify self-aminoacylation: bottom: < 1; middle: ≥ 1 and < 20; top: ≥ 20

Challenge: Returns: class label. Input: AUUCACCAAGGUCAUCGGGUU [Fam2.2 aminoacylation ribozyme variant]
Response given: middle

Challenge: Returns: class label. Input: CCACAUCAAACAAUCGGUCUG [Fam1A.1 aminoacylation ribozyme variant]
Response given: middle

Challenge: Returns: class label. Input: CCACUCUUCAAGCACUCGGUC [Fam1B.1 aminoacylation ribozyme variant]
Response given: bottom

Challenge: Returns: class label. Input: AUUCACCUACUUCAUCGGGUG [Fam2.2 aminoacylation ribozyme variant]
Response given: middle

Challenge: Returns: class label. Input: CCACAAUUCAAACAAUCGGUC [Fam1B.1 aminoacylation ribozyme variant]
Response given: middle

Challenge: Returns: class label. Input: CCGCAAUUCAAGCAAUCGGUC [Fam1B.1 aminoacylation ribozyme variant]
Response given: middle

Challenge: Returns: class label. Input: AUUACCCUGGUGAUCGACUGA [Fam2.1 aminoacylation ribozyme variant]
Response given: bottom

Challenge: Returns: class label. Input: AUUACCCUUGUCAUCCAGUGA [Fam2.1 aminoacylation ribozyme variant]
Response given: middle

Challenge: Returns: class label. Input: AUAACCCUGGUCAUCGAAUGA [Fam2.1 aminoacylation ribozyme variant]
Response given: bottom

Challenge: Returns: class label. Input: AGUCACCUUGGUCAUCGGGUG [Fam2.2 aminoacylation ribozyme variant]
Response given: top

Challenge: Returns: class label. Input: CUUCAGCUAGGUCAUCGGGUG [Fam2.2 aminoacylation ribozyme variant]
Response given: middle

Challenge: Returns: class label. Input: AUUUCCCAGGUCAUCGAGUGA [Fam2.1 aminoacylation ribozyme variant]
Response given: top

Challenge: Returns: class label. Input: GAUACCCUGGUCAUCGAGUGA [Fam2.1 aminoacylation ribozyme variant]
Response given: top

Challenge: Returns: class label. Input: AAGUUUGCUUAUAGACGCAAG [Fam3.1 aminoacylation ribozyme variant]
Response given: bottom

Challenge: Returns: class label. Input: AUUAUCCUGGUCAUCGCGUGA [Fam2.1 aminoacylation ribozyme variant]
Response given: top

Challenge: Returns: class label. Input: CCACACAUCAAGCUAUCGGUC [Fam1B.1 aminoacylation ribozyme variant]
Response given: bottom

Challenge: Returns: class label. Input: CUACUUCAAACAAUCGCUCCG [Fam1A.1 aminoacylation ribozyme variant]
Response given: middle

Challenge: Returns: class label. Input: AUUCACCCCGGUCAUCGGGUG [Fam2.2 aminoacylation ribozyme variant]
Response given: top

Challenge: Returns: class label. Input: CCACGCUUCAAGCAAUAGGUC [Fam1B.1 aminoacylation ribozyme variant]
Response given: bottom

Challenge: Returns: class label. Input: AUUGACCUGGGUCAUCGGGUG [Fam2.2 aminoacylation ribozyme variant]
Response given: top

Challenge: Returns: class label. Input: CUACUUCAAUCAACCGGUCUG [Fam1A.1 aminoacylation ribozyme variant]
Response given: bottom

Challenge: Returns: class label. Input: CUACUCCAAACAAUCGGUCUC [Fam1A.1 aminoacylation ribozyme variant]
Response given: middle

Challenge: Returns: class label. Input: AUUACCCUGGUCAUCAAAUGA [Fam2.1 aminoacylation ribozyme variant]
Response given: middle

Challenge: Returns: class label. Input: AUUCACCUAGGUCAAGGGGUG [Fam2.2 aminoacylation ribozyme variant]
Response given: middle

Challenge: Returns: class label. Input: GAGUUUGCUAAUUGUCGCAAG [Fam3.1 aminoacylation ribozyme variant]
Response given: middle

Challenge: Returns: class label. Input: AUUCACCUGGGUCAUCGCGUG [Fam2.2 aminoacylation ribozyme variant]
Response given: top

Challenge: Returns: class label. Input: AAGUUUGCUAGUAGUCGCGAG [Fam3.1 aminoacylation ribozyme variant]
Response given: middle

Challenge: Returns: class label. Input: AAGUUUGAUAGUAGUCGCAAG [Fam3.1 aminoacylation ribozyme variant]
Response given: bottom

Challenge: Returns: class label. Input: UUUACCCUGGUCAUCGAGUGU [Fam2.1 aminoacylation ribozyme variant]
Response given: top

Challenge: Returns: class label. Input: UCACACUUGAAGCAAUCGGUC [Fam1B.1 aminoacylation ribozyme variant]
Response given: bottom

Challenge: Returns: class label. Input: AUUCCCCUAGGUCAUCGGUUG [Fam2.2 aminoacylation ribozyme variant]
Response given: middle

Challenge: Returns: class label. Input: AUUCACAUAUGUCAUCGGGUG [Fam2.2 aminoacylation ribozyme variant]
Response given: top

Challenge: Returns: class label. Input: CCACACAUCAGGCAAUCGGUC [Fam1B.1 aminoacylation ribozyme variant]
Response given: middle

* * *

Test system: biotinyl-Val-oxazolone
Assay: self-aminoacylation, catalytic enhancement (BVO) (fold over background); higher = more active; k-Seq, kA / k0A0; sequences stand for … in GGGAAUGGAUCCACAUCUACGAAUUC…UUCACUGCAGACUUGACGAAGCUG
Fewer inactive variants are shown than the library holds.
Record form. Attribute: self-aminoacylation. Fill in for each entry.

Challenge: Determine its reported self-aminoacylation: AAUUUUGCUAAUAGUCUCAAG [Fam3.1 aminoacylation ribozyme variant]
Response given: 1.26

Challenge: Determine its reported self-aminoacylation: AUUACGCUGGUCAUCCAGUGA [Fam2.1 aminoacylation ribozyme variant]
Response given: 1.96

Challenge: Determine its reported self-aminoacylation: AUGACCAUGGUCAUCGAGUGA [Fam2.1 aminoacylation ribozyme variant]
Response given: 4.28

Challenge: Determine its reported self-aminoacylation: CUUCAGCUAGGUCAUCGGGUG [Fam2.2 aminoacylation ribozyme variant]
Response given: 3.6

Challenge: Determine its reported self-aminoacylation: AAGUUUGCUAAGAAUCGCAAG [Fam3.1 aminoacylation ribozyme variant]
Response given: 0.58

Challenge: Determine its reported self-aminoacylation: CUACAUCAAACAAUCGGCCUG [Fam1A.1 aminoacylation ribozyme variant]
Response given: 1.25

* * *

System: biotinyl-Leu-oxazolone
Assay: self-aminoacylation, catalytic enhancement (BLO) (fold over background); higher = more active; k-Seq, kA / k0A0; sequences stand for … in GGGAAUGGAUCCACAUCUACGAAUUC…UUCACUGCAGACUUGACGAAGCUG
Fewer inactive variants are shown than the library holds.
Result type: self-aminoacylation
Give only the figure.

Challenge: Determine its reported self-aminoacylation: CCACACAUCAAGCUAUCGGUC [Fam1B.1 aminoacylation ribozyme variant]
Response given: 0.914

Challenge: Determine its reported self-aminoacylation: AAGUUAUCUAAUAGUCGCAAG [Fam3.1 aminoacylation ribozyme variant]
Response given: 1.53

Challenge: Determine its reported self-aminoacylation: CAGUUUGCUAAUAGUCACAAG [Fam3.1 aminoacylation ribozyme variant]
Response given: 1.11

Challenge: Determine its reported self-aminoacylation: AUAACCCUGGUCAUCGAAUGA [Fam2.1 aminoacylation ribozyme variant]
Response given: 0.798
